Source listed as paper PMC11396935.

# Assay: ABTS radical cation scavenging assay
# Measurement setup: 100 μM
Outcome measure: ABTS+• scavenging activity (% inhibition)

COc1ccc(-c2nc3ccc(C)cc3o2)c(OC)c1 less than 5%
COc1ccc(-c2nc3ccc(Cl)cc3o2)c(OC)c1 less than 5%
COc1ccc(-c2nc3cc(C)ccc3o2)c(OC)c1 less than 5%

###

Answer each item with its documented IC50.
# Test system: mushroom tyrosinase (Agaricus bisporus)
# Construct: purchased Sigma-Aldrich (St. Louis, MO, USA)
# Sequence (C7FF04 1-392 limits assumed): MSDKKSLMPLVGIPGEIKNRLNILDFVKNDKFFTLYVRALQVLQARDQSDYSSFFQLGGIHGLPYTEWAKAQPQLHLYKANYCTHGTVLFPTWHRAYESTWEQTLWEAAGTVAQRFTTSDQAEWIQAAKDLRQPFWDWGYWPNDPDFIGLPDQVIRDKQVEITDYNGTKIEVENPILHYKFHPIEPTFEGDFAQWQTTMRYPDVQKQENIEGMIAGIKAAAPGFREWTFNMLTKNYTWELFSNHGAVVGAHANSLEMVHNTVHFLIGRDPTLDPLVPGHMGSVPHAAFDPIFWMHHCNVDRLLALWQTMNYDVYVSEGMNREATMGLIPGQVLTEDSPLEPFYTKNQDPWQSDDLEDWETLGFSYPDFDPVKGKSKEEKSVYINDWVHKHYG
# Assay: Mushroom tyrosinase activity inhibition assay (L-tyrosine or L-dopa as substrate)
# Assay type: biochemical
# Measurement setup: mushroom tyrosinase, substrate L-tyrosine, 30 min, 37 °C; mean ± SEM of triplicates; read-out: IC50 Values, L-Tyrosine

Reported IC50 ( COc1ccc(-c2nc3ccc(Cl)cc3o2)c(OC)c1 [Compound 7] ) = > 200 µM

Noted for COc1ccc(-c2nc3cc(C)ccc3o2)c(OC)c1 [Compound 12] : its IC50 reads > 200 µM

Just so you know, measured IC50 for COc1ccc(-c2nc3ccc(C)cc3o2)cc1O [Compound 4] came out at > 200 µM

IC50 measured on COc1ccc(-c2nc3ccc(C)cc3o2)c(OC)c1 [Compound 2] = > 200 µM

Data point: COc1ccc(-c2nc3ccc(Cl)cc3o2)cc1O [Compound 9] ; IC50 = > 200 µM
